The reported numbers originate from patent US11427549B2.

tested on: kochia (Kochia scoparia); assay: Test A preemergence, kochia; assay type: in vivo; settings: Bassia scoparia, pre-emergence, 240 h, 31 g ai/ha, 0 to 100 scale (0 no effect, 100 complete control), read-out: Plant response rating, Kochia
Below: a set of entries, each annotated with reported pest or weed control at 31 g/ha.
measuredAttribute: pest or weed control at 31 g/ha (%)

# compound, measurementTarget, measuredAttribute, unitSymbol, reported
rows = [
    ("FC(F)(F)CCC1COc2cccc(Oc3ncc(Cl)cn3)c21 (stereo not shown) [Compound 36]", "kochia (Kochia scoparia)", "pest or weed control at 31 g/ha", "%", 0),
    ("O=C1Cc2cccc(Oc3ncc(Cl)cn3)c2C(CCCC(F)(F)F)O1 (stereo not shown) [Compound 17]", "kochia (Kochia scoparia)", "pest or weed control at 31 g/ha", "%", 0),
    ("O=C1OCc2cccc(Oc3ncc(Cl)cn3)c2C1CCCC(F)(F)F (stereo not shown) [Compound 26]", "kochia (Kochia scoparia)", "pest or weed control at 31 g/ha", "%", 0),
    ("O=C1Cc2cccc(Oc3ncc(Cl)cn3)c2C(CCC(F)(F)F)O1 (stereo not shown) [Compound 28]", "kochia (Kochia scoparia)", "pest or weed control at 31 g/ha", "%", 0),
    ("O=C1CC(CCC(F)(F)F)c2c(Oc3ncc(Cl)cn3)cccc21 (stereo not shown) [Compound 11]", "kochia (Kochia scoparia)", "pest or weed control at 31 g/ha", "%", 0),
    ("CCCC1OC(=O)Cc2cccc(Oc3ncc(Cl)cn3)c21 (stereo not shown) [Compound 35]", "kochia (Kochia scoparia)", "pest or weed control at 31 g/ha", "%", 0),
    ("FC(F)(F)CCCC1CCc2cccc(Oc3ncc(Cl)cn3)c21 (stereo not shown) [Compound 9]", "kochia (Kochia scoparia)", "pest or weed control at 31 g/ha", "%", 10),
    ("O=C1O[C@H](CCCC(F)(F)F)c2c(Oc3ncc(Cl)cn3)cccc21 [Compound 3]", "kochia (Kochia scoparia)", "pest or weed control at 31 g/ha", "%", 80),
    ("FC(F)(F)CCCC1COc2cccc(Oc3ncc(Cl)cn3)c21 (stereo not shown) [Compound 33]", "kochia (Kochia scoparia)", "pest or weed control at 31 g/ha", "%", 0),
    ("O=C1CCC(CCCC(F)(F)F)c2c(Oc3ncc(Cl)cn3)cccc21 (stereo not shown) [Compound 30]", "kochia (Kochia scoparia)", "pest or weed control at 31 g/ha", "%", 0),
    ("FC(F)(F)CCCC1OCc2cccc(Oc3ncc(Cl)cn3)c21 (stereo not shown) [Compound 7]", "kochia (Kochia scoparia)", "pest or weed control at 31 g/ha", "%", 0),
    ("O=C1OCc2cccc(Oc3ncc(Cl)cn3)c2C1CCC(F)(F)F (stereo not shown) [Compound 29]", "kochia (Kochia scoparia)", "pest or weed control at 31 g/ha", "%", 0),
    ("FC(F)(F)CCCC1OCCc2cccc(Oc3ncc(Cl)cn3)c21 (stereo not shown) [Compound 27]", "kochia (Kochia scoparia)", "pest or weed control at 31 g/ha", "%", 0),
    ("FC(F)(F)CCC1OCc2cccc(Oc3ncc(Cl)cn3)c21 (stereo not shown) [Compound 8]", "kochia (Kochia scoparia)", "pest or weed control at 31 g/ha", "%", 20),
    ("FC(F)(F)CC[C@@H]1OCc2cccc(Oc3ncc(Cl)cn3)c21 [Compound 21]", "kochia (Kochia scoparia)", "pest or weed control at 31 g/ha", "%", 0),
    ("O=C1OC(CCCCC(F)(F)F)Cc2c(Oc3ncc(Cl)cn3)cccc21 (stereo not shown) [Compound 31]", "kochia (Kochia scoparia)", "pest or weed control at 31 g/ha", "%", 0),
    ("O=C1c2cccc(Oc3ncc(Cl)cn3)c2C1CCCC(F)(F)F (stereo not shown) [Compound 22]", "kochia (Kochia scoparia)", "pest or weed control at 31 g/ha", "%", 20),
    ("FC(F)(F)CCC1OCCc2cccc(Oc3ncc(Cl)cn3)c21 (stereo not shown) [Compound 32]", "kochia (Kochia scoparia)", "pest or weed control at 31 g/ha", "%", 0),
    ("O=C1OC(CCC(F)(F)F)c2c(Oc3ncc(Cl)cn3)cccc21 (stereo not shown) [Compound 4]", "kochia (Kochia scoparia)", "pest or weed control at 31 g/ha", "%", 90),
]

###

# molecule, melting point
rows = [
    ("O=C1OC(CCCCC(F)(F)F)Cc2c(Oc3ncc(Cl)cn3)cccc21 (stereo not shown)", "93 to 97 °C"),
    ("O=C1O[C@H](CCC(F)(F)F)c2c(Oc3ncc(Cl)cn3)cccc21", "94 to 99 °C"),
    ("CCCC1OC(=O)Cc2cccc(Oc3ncc(Cl)cn3)c21 (stereo not shown)", "136 to 140 °C"),
    ("O=C1Cc2cccc(Oc3ncc(Cl)cn3)c2C(CCCC(F)(F)F)O1 (stereo not shown)", "125 to 129 °C"),
    ("O=C1O[C@@H](CCC(F)(F)F)c2c(Oc3ncc(Cl)cn3)cccc21", "99 to 101 °C"),
    ("O=C1Cc2cccc(Oc3ncc(Cl)cn3)c2C(CCC(F)(F)F)O1 (stereo not shown)", "122 to 126 °C"),
    ("O=C1OC(CCC(F)(F)F)Cc2c(Oc3ncc(Cl)cn3)cccc21 (stereo not shown)", "117 to 121 °C"),
]

###

tested on: foxtail, green (green foxtail, Setaria viridis); test: Test A preemergence, foxtail, green; format: in vivo; conditions: Setaria, pre-emergence, 240 h, 31 g ai/ha, 0 to 100 scale (0 no effect, 100 complete control), read-out: Plant response rating, Foxtail, Green
Source text: […]
measuredAttribute: pest or weed control at 31 g/ha

# molecule, measuredAttribute, reported
data = [
    ("FC(F)(F)CCC1OCc2cccc(Oc3ncc(Cl)cn3)c21 (stereo not drawn)", "pest or weed control at 31 g/ha", "80%"),
    ("O=C1OC(CCC(F)(F)F)c2c(Oc3ncc(Cl)cn3)cccc21 (stereo not drawn)", "pest or weed control at 31 g/ha", "100%"),
    ("O=C1CC(CCC(F)(F)F)c2c(Oc3ncc(Cl)cn3)cccc21 (stereo not drawn)", "pest or weed control at 31 g/ha", "10%"),
]

###

test system: foxtail, giant (giant foxtail, Setaria faberii); test: Test A preemergence, foxtail, giant; type: in vivo; conditions: Setaria faberi, pre-emergence, 240 h, 125 g ai/ha, 0 to 100 scale (0 no effect, 100 complete control), read-out: Plant response rating, Foxtail, Giant
Below: a set of entries, each annotated with reported pest or weed control at 125 g/ha.

# compound, measurementTarget, pest or weed control at 125 g/ha [%]
records = [
    ("O=C1c2cccc(Oc3ncc(Cl)cn3)c2C1CCC(F)(F)F (centres unmarked)", "foxtail, giant (giant foxtail, Setaria faberii)", 20),
    ("O=C1OCc2cccc(Oc3ncc(Cl)cn3)c2C1CCC(F)(F)F (centres unmarked)", "foxtail, giant (giant foxtail, Setaria faberii)", 20),
    ("FC(F)(F)CCC1COc2cccc(Oc3ncc(Cl)cn3)c21 (centres unmarked)", "foxtail, giant (giant foxtail, Setaria faberii)", 60),
    ("O=C1CCC(CCCC(F)(F)F)c2c(Oc3ncc(Cl)cn3)cccc21 (centres unmarked)", "foxtail, giant (giant foxtail, Setaria faberii)", 80),
    ("O=C1c2cccc(Oc3ncc(Cl)cn3)c2C1CCCC(F)(F)F (centres unmarked)", "foxtail, giant (giant foxtail, Setaria faberii)", 70),
]

###

test system: ryegrass, Italian (Italian ryegrass, Lolium multiflorum); test: Test A preemergence, ryegrass, Italian; format: in vivo; conditions: Lolium multiflorum, pre-emergence, 240 h, 31 g ai/ha, 0 to 100 scale (0 no effect, 100 complete control), read-out: Plant response rating, Ryegrass, Italian
From the text: […]
Below: a set of entries, each annotated with reported pest or weed control at 31 g/ha.

# compound, pest or weed control at 31 g/ha, %
records = [
    ("FC(F)(F)CC[C@@H]1OCc2cccc(Oc3ncc(Cl)cn3)c21", 0),
    ("O=C1O[C@H](CCC(F)(F)F)c2c(Oc3ncc(Cl)cn3)cccc21", 10),
    ("O=C1OCC(CCC(F)(F)F)c2c(Oc3ncc(Cl)cn3)cccc21 (stereo not drawn)", 0),
    ("O=C1O[C@@H](CCC(F)(F)F)c2c(Oc3ncc(Cl)cn3)cccc21", 0),
    ("O=C1OCc2cccc(Oc3ncc(Cl)cn3)c2C1CCCCC(F)(F)F (stereo not drawn)", 0),
    ("FC(F)(F)CCC1OCCc2cccc(Oc3ncc(Cl)cn3)c21 (stereo not drawn)", 0),
    ("FC(F)(F)CCCC1COc2cccc(Oc3ncc(Cl)cn3)c21 (stereo not drawn)", 0),
    ("O=C1CCC(CCCC(F)(F)F)c2c(Oc3ncc(Cl)cn3)cccc21 (stereo not drawn)", 0),
    ("O=C1OCc2cccc(Oc3ncc(Cl)cn3)c2C1CCCC(F)(F)F (stereo not drawn)", 0),
    ("FC(F)(F)CCCC1OCc2cccc(Oc3ncc(Cl)cn3)c21 (stereo not drawn)", 0),
    ("O=C1OC(CCC(F)(F)F)Cc2c(Oc3ncc(Cl)cn3)cccc21 (stereo not drawn)", 0),
    ("O=C1O[C@H](CCCC(F)(F)F)c2c(Oc3ncc(Cl)cn3)cccc21", 70),
    ("FC(F)(F)CCC1OCc2cccc(Oc3ncc(Cl)cn3)c21 (stereo not drawn)", 10),
    ("O=C1OC(CCC(F)(F)F)c2c(Oc3ncc(Cl)cn3)cccc21 (stereo not drawn)", 20),
    ("FC(F)(F)CCC1COc2cccc(Oc3ncc(Cl)cn3)c21 (stereo not drawn)", 0),
    ("O=C1CC(CCC(F)(F)F)c2c(Oc3ncc(Cl)cn3)cccc21 (stereo not drawn)", 0),
    ("OC1CC(CCCC(F)(F)F)c2c(Oc3ncc(Cl)cn3)cccc21 (stereo not drawn)", 10),
    ("CN1C(=O)c2cccc(Oc3ncc(Cl)cn3)c2C1CCCC(F)(F)F (stereo not drawn)", 0),
]
